Each recorded value in this set is attributed to patent US4766148A.

- TEST NAME: in vivo
- SETTINGS: mouse, po
Lab note - cut at 800 mg/kg for LD50 at 336 h: y if strictly below, n if not.

Given CC=CC=CC(=O)OC(C)OC(=O)C(C)c1ccc(-c2ccccc2)c(F)c1 (stereo not shown) , is recorded LD50 at 336 h strictly lower than 800 mg/kg?
n

Please determine if CCC(OC(C)=O)OC(=O)C(C)c1ccc(-c2ccccc2)c(F)c1 (stereo not shown) is below 800 mg/kg in terms of LD50 at 336 h.
n

Just wondering, is LD50 at 336 h of CC(C(=O)OC1C(=O)OCC1(C)C)c1ccc(-c2ccccc2)c(F)c1 (stereo not shown) below 800 mg/kg?
y

In the record for CCCCCCCCCCCCCCCC(=O)OC(C)OC(=O)C(C)c1ccc(-c2ccccc2)c(F)c1 (stereo not shown) , is LD50 at 336 h less than 800 mg/kg?
n

Would you kindly verify if LD50 at 336 h of CC(=O)OC(C)OC(=O)C(C)c1ccc(-c2ccccc2)c(F)c1 (stereo not shown) is strictly less than 800 mg/kg?
y

Please check: LD50 at 336 h for CC(OC(=O)C(C)C)OC(=O)C(C)c1ccc(-c2ccccc2)c(F)c1 (stereo not shown) , strictly under 800 mg/kg or not?
n

Would you kindly verify if LD50 at 336 h of CC(C)=CC(=O)OC(C)OC(=O)C(C)c1ccc(-c2ccccc2)c(F)c1 (stereo not shown) is strictly less than 800 mg/kg?
n

Is the reported LD50 at 336 h for CC(OC(=O)C(C)c1ccc(-c2ccccc2)c(F)c1)OC(=O)C(C)(C)C (stereo not shown) strictly below 800 mg/kg?
n

---

- TEST NAME: Gastric ulceration (gastric irritation test)
- Format: in vivo, Wistar male rats
- SETTINGS: rat, in vivo, po; Table 3; Wistar male rats, orally, six hours after administration, Litchfield-Wilcoxon; read-out: UD50, gastric ulcer
Please provide measured TD50 at 6 h for the entries that follow.
Give just the numeric value; mg/kg need not be written.

Read off the recorded TD50 at 6 h for CC(OC(=O)C(C)C)OC(=O)C(C)c1ccc(-c2ccccc2)c(F)c1 (stereo not drawn)
5

Supply recorded TD50 at 6 h for CC(C(=O)OC1C(=O)OCC1(C)C)c1ccc(-c2ccccc2)c(F)c1 (stereo not drawn) here.
2.5

Quote TD50 at 6 h reported for C/C=C/C(=O)OC(C)OC(=O)C(C)c1ccc(-c2ccccc2)c(F)c1 (stereo not drawn) please.
4

Give the value of TD50 at 6 h reported for the following: CC(=O)OC(C)OC(=O)C(C)c1ccc(-c2ccccc2)c(F)c1 (stereo not drawn)
2.5

Quickly give me recorded TD50 at 6 h for CCC(=O)OC(C)OC(=O)C(C)c1ccc(-c2ccccc2)c(F)c1 (stereo not drawn)
3

Identify the reported TD50 at 6 h for the following entry. CCC(OC(C)=O)OC(=O)C(C)c1ccc(-c2ccccc2)c(F)c1 (stereo not drawn)
5

---

Give measured TD50 at 6 h for each item. Keep answers brief.
- TEST NAME: Gastric ulceration (gastric irritation test)
- Format: in vivo, Wistar male rats
- SETTINGS: rat, in vivo, po
I only need the number, in mg/kg, no unit after it.

State its TD50 at 6 h for this compound: CC(C)=CC(=O)OC(C)OC(=O)C(C)c1ccc(-c2ccccc2)c(F)c1 (stereo not shown) [Compound 8]
7

Give the reported TD50 at 6 h for this compound. CC(OC(=O)C(C)c1ccc(-c2ccccc2)c(F)c1)OC(=O)C(C)(C)C (stereo not shown) [Compound 4]
10

Answer with the recorded TD50 at 6 h of CC=CC=CC(=O)OC(C)OC(=O)C(C)c1ccc(-c2ccccc2)c(F)c1 (stereo not shown) [Compound 9] only.
7

---

- Tested on: carrageenan-induced edema
- TEST NAME: Inhibitory effect on carrageenan-induced edema
- Assay type: in vivo, Wistar male rats
- SETTINGS: Rattus norvegicus, po, read-out: ED50, carrageenan-induced edema
Provide the reported ED50 of each item.
// note: answer is a bare numeric in mg/kg

Find ED50 for CC(C(=O)OC1C(=O)OCC1(C)C)c1ccc(-c2ccccc2)c(F)c1 (stereo not drawn) [Compound 10] on carrageenan-induced edema and write it down.
0.5

Enter recorded ED50 with carrageenan-induced edema for CC(OC(=O)C(C)C)OC(=O)C(C)c1ccc(-c2ccccc2)c(F)c1 (stereo not drawn) [Compound 3] here.
1.5

With carrageenan-induced edema as the test system, provide measured ED50 for this compound: C/C=C/C(=O)OC(C)OC(=O)C(C)c1ccc(-c2ccccc2)c(F)c1 (stereo not drawn) [Compound 7]
0.9

Enter measured ED50, system carrageenan-induced edema, for the compound shown: CC(=O)OC(C)OC(=O)C(C)c1ccc(-c2ccccc2)c(F)c1 (stereo not drawn) [Compound 1]
0.5

Check carrageenan-induced edema data and give ED50 for CCC(=O)OC(C)OC(=O)C(C)c1ccc(-c2ccccc2)c(F)c1 (stereo not drawn) [Compound 2] .
0.7

Name the value of ED50 reported for CCC(OC(C)=O)OC(=O)C(C)c1ccc(-c2ccccc2)c(F)c1 (stereo not drawn) [Compound 6] when tested on carrageenan-induced edema.
1.5
